Data origin: the supplement of paper PMC9170038

// apparent KD of MS2 coat protein lookup, one value per entry
test system: MS2 coat protein; experiment: apparent KD of MS2 coat protein; designed switch direction (-1 OFF switch, 1 ON switch): -1; higher = weaker reporter binding; conditions: Eterna round: R95; input ligand: microRNA oligo, concentration not stated
Numbers only; they are read as nM.

Solved entries:
GAUUAUGCGAGCUUUAGGGACAUGAGGAUCACCCAUGUUCGUCUUAUUAGUCUGAAUACGCUGACAUACCUAAAUCU [JMF 95] (puzzle: Sensor v3, turn-off variant 1) ... 19.5
UAUACUAGAUAGGAUAUACUAUAUAUAUUUUUCGUAGAAGGAUCUACAUGAGGAUCACCCAUGUUAACAGCAGU [JR_E6_Sub007] (puzzle: Exclusion 6) ... 42.9
CGUGACUGAGGAUAUCUAUGGUAUCACAUGAGGAUCACCCAUGUCCAGCGAAAGCUGGAGGGAGAAGGCAGUCACG [Fiskers Ex 5 - 32] (puzzle: Exclusion 5) ... 186

Consider the sequence shown here: AUUAUGUAAGGAUAUCUUACAUGUGACUUCGGUCACUGUUCAGAGAAGGUACAUGAGGAUCACCCAUGUAGAAC [Ex4-3: 46] (puzzle: Exclusion 4) What is its recorded apparent KD of MS2 coat protein?
18

Let us now turn to ACAUGAUACUAGGAUAUCAGCAUACUUCAAUGUUGAGAAGGAGUAACAUGAGGAUCACCCAUGUAUCCAACAUG [Exclusion 6 - 4:b] (puzzle: Exclusion 6)
43.5
